Taken from patent US7955816B2.

Experimental System: CB2R (Mus musculus)
Sequence (P47936 whole entry): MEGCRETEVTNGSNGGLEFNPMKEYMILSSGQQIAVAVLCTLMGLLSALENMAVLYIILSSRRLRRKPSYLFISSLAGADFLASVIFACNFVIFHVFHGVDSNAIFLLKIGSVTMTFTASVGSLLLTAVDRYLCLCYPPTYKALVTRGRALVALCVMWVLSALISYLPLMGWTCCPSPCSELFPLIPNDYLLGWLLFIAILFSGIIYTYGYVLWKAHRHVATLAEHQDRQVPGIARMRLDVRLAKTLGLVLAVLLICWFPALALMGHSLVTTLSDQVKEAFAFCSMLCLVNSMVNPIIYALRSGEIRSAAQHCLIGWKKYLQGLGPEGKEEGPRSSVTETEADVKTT
Attribute Measured: IC50

Prompt: Tell me IC50 of CCCCC/C=C\C/C=C\C/C=C\C/C=C\CCCC(=O)NCCOCCOCCNC(=O)CCCC[C@@H]1SC[C@@H]2NC(=O)N[C@@H]21 [b-AEA] when tested on CB2R (Mus musculus).
Response: > 10 µM
